- Test system: Cryptococcus neoformans
readout type: MIC (µg/mL)
Give bare numbers, in µg/mL.

molecule	MIC, µg/mL
OC(C[n+]1ccn(CC(OCc2ccc(Cl)cc2Cl)c2ccc(Cl)cc2Cl)c1)c1ccc(Cl)cc1Cl.[Cl-] (stereo not shown)	10

Hi there! I need MIC for each item below, if you can.
1. O=C(C[n+]1ccn(CC(OCc2ccc(Cl)cc2Cl)c2ccc(Cl)cc2Cl)c1)NCc1ccccc1Cl (stereo not shown)
2. Fc1ccc(C(c2ccc(Cl)cc2)[n+]2ccn(CC(OCc3ccc(Cl)cc3Cl)c3ccc(Cl)cc3Cl)c2)cc1 (stereo not shown) [drawing 61]
3. COc1cccc(NC(=O)C[n+]2ccn(CC(OCc3ccc(Cl)cc3Cl)c3ccc(Cl)cc3Cl)c2)c1 (stereo not shown) [CH2CONHC6H4m(OCH3), hydrate]

// result
1: 100; 2: 100; 3: 10

----------
Cryptococcus neoformans: reported MIC for various compounds.
Answers are plain numbers, in µg/mL.

compound	unit name	recorded result
Cc1ccccc1NC(=O)C[n+]1ccn(CC(OCc2ccc(Cl)cc2Cl)c2ccc(Cl)cc2Cl)c1 (stereo not shown) [CH2CONHC6H4oCH3]	µg/mL	1
Clc1ccc(COC(Cn2cc[n+](CCCOc3ccc4ccccc4c3)c2)c2ccc(Cl)cc2Cl)c(Cl)c1.O.[Cl-] (stereo not shown) [(CH2)3OC10H7]	µg/mL	100
COc1ccc(C(=O)C[n+]2ccn(CC(OCc3ccc(Cl)cc3Cl)c3ccc(Cl)cc3Cl)c2)cc1.[Br-] (stereo not shown) [CH2COC6H4p(OCH3)]	µg/mL	10
O=C(C[n+]1ccn(CC(OCc2c(Cl)cccc2Cl)c2ccc(Cl)cc2Cl)c1)c1ccc(F)cc1 (stereo not shown) [2,4(Cl)2C6H3/drawing 66/CH2COC6H4pF]	µg/mL	10

Hi there! I need MIC for each item below, if you can.
1. O=C(C[n+]1ccn(CC(OCc2ccc(Cl)cc2Cl)c2ccc(Cl)cc2Cl)c1)Nc1ccccc1Oc1ccccc1 (stereo not shown) [CH2CONHC6H4oOPh, hydrate]
2. CC(C(=O)Nc1ccccc1Cl)[n+]1ccn(CC(OCc2ccc(Cl)cc2Cl)c2ccc(Cl)cc2Cl)c1 (stereo not shown)
3. CCCCOC(Cn1cc[n+](CC(=O)Nc2ccc(F)cc2)c1)c1ccc(Cl)cc1Cl (stereo not shown) [2,4(Cl)2C6H3/nC4H9/CH2CONHC6H4pF]

// result
[100, 100, 100]

----------
Trichophyton rubrum: reported MIC for various molecules.
One number for each entry, in µg/mL.

// below: answered molecules
molecule	MIC [µg/mL]
Cc1ccccc1NC(=O)C[n+]1ccn(CC(OCc2ccc(Cl)cc2Cl)c2ccc(Cl)cc2Cl)c1 (stereo not shown)	1
Clc1ccc(NCCn2cc[n+](CC(OCc3ccc(Cl)cc3Cl)c3ccc(Cl)cc3Cl)c2)cc1.[Br-] (stereo not shown)	10
Cc1cccc(C)c1N(C)C(=O)C[n+]1ccn(CC(OCc2ccc(Cl)cc2Cl)c2ccc(Cl)cc2Cl)c1 (stereo not shown)	1
O=C(C[n+]1ccn(CC(OCc2ccc(Cl)cc2Cl)c2ccc(Cl)cc2Cl)c1)Nc1ccc(Cl)cc1Cl (stereo not shown) [CH2CONHC6H32,4(Cl)2, hydrate]	10
OC(C[n+]1ccn(CC(OCc2ccc(Cl)cc2)c2ccc(Cl)cc2Cl)c1)c1ccc(Cl)cc1 (stereo not shown) [2,4(Cl)2C6H3/drawing 65/CH2CHOHC6H4pCl]	1

Hi there! I need MIC for each item below, if you can.
1. O=C(C[n+]1ccn(CC(OCc2c(Cl)cccc2Cl)c2ccc(Cl)cc2Cl)c1)c1ccc(F)cc1 (stereo not shown) [2,4(Cl)2C6H3/drawing 66/CH2COC6H4pF]
2. O=C(CCn1cc[n+](CC(OCc2ccc(Cl)cc2Cl)c2ccc(Cl)cc2Cl)c1)c1ccc(Cl)cc1.[Cl-] (stereo not shown)

// result
1: 1; 2: 1
